Experiment: protein stability index of a GFP-peptide fusion (GPS, HEK-293T) (PSI 1-6); higher = more stable;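 also: 24-mer peptide tiles fused after GFP, lentivirally expressed, FACS-sorted into six equal bins by GFP/DsRed ratio, decoded by Illumina sequencing, PSI is the read-weighted mean bin number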
Details: treatment: MLN4924 1 uM, 8 h; c terminus: a fixed tail appended
Class condition met: protein stability index at least 4. Class condition not met: protein stability index below 4.

Could you please find out whether DGTFSPVTLALFFVLYFLLACWTY [CLCN6] has protein stability index that meets 4 or exceeds it?
condition not met

Hello, I need to know if AEKLCIYTDNSIRPEELLQMELLL [CCND1] has measured protein stability index not below 4. Thanks!
condition not met

Quick check: does SILRELDTSMDGTEPPQNPVTPLG [SERTAD3] have protein stability index greater than or equal to 4?
condition met

Kindly determine if protein stability index recorded for KDVMEKREDSKEAEKSGEATDGAR [CHGA] is above or exactly 4.
condition met

Decide: protein stability index of NRPSFDAILYYYQSGGRLRRPVNV [KCNA1] >= 4?
condition not met

Determine whether measured protein stability index meets or exceeds 4 for LEAPEDIGSTSESKDWEEVVVESM [MIA2]
condition met

Quick check: does THQTQPGIRRARDKALSGGKRKET [NET1] have protein stability index greater than or equal to 4?
condition met

# check: protein stability index of QPPEFRNESSLASTLKTLLFFTAL [VMA21] is greater than or equal to 4
condition not met

Please tell me: is the sequence LYWRDIKQTGIVFGSFLLLLFSLT [RTN1] at or over 4 in terms of protein stability index?
condition not met

Check the entry SKGWGRNYASIIRRDCMWSGFSAR [MYCL] : does protein stability index equal or exceed 4?
condition not met

Does the reported protein stability index for QPSQQQQPPPQEEPGTPSSSPDDK [KLHL14] fall at or above the 4 mark?
condition met

Check this sequence for protein stability index at or above 4: PATGGAIPSWQIRTVKLIRYVSNW [PKD2L1]
condition not met

* * *

Test: protein stability index of a GFP-peptide fusion (GPS, HEK-293T) (PSI 1-6); higher = more stable
Conditions: treatment: MLN4924 1 uM, 8 h; c terminus: a fixed tail appended
readout name: protein stability index
Reply with just the number.

Which protein stability index value is on record for KVNQNQAKRCTVIGGSGFLGQHMV [NSDHL] ?
2.07

So what does the record say about protein stability index for GVWAPPAPGFGEDVPNRLVDNIDM [BEX5] ?
4.25

Sample ETPGCATLLPASLFVNSHPGIDRP [DCAF4] — what was its protein stability index?
3.75

Field request: protein stability index | item: KSLEWSPWNCILLTKDEAAAHLKL [IQUB]
2.56

Entry under review: LCQCHEGFALNPDKKTCTKIDYCA [MATN2] . Reported protein stability index?
3.35

protein stability index for IRQLATSGRFIVIIPRTVIDGLDL [SMG5] ?
2.68

Looking for the measured protein stability index of QMASQSSASHYKLQVIKALKSSGL [M1AP] , can you help?
2.77

# query: protein stability index of entry MGGIMAPKDIMTNTHAKSILNSMN [KLHL12]
3.27

Quick check: protein stability index of AFYRLADLFGWSQLIYNHITTRVN [ADD1] ?
2.88

What does the record list as protein stability index for ALAAATAAAAAAASAAAATAAFTT [SPAG8] ?
3.25

Report protein stability index for WRITNAKGDVEEVQGPGVVGEFPI [FBXO3] please.
3.84

protein stability index for YSAIDRVKSRGKRLALEKVPKVGQ [PI4K2A] ?
4.12

Entry PSPSEVITPWTPSPSEKNSSFTWS [SMTNL2] : reported protein stability index = ?
4

Requested field: protein stability index. Item: TPMLNPLIYTLKNAEMKSAMRKLW [OR4A15]
2.04

Consider the sequence ADIISTVEFNHTGELLATGDKGGR [PPP2R2C] and give its measured protein stability index.
4.66

Any idea what its protein stability index is? The sequence is HVLLEGEGLGQSLGNFKDDLLNVC [TRIM29]
3.1

Entry RTGSLFKIWLVVPSLLELAWEKLL [KLHDC10] : reported protein stability index = ?
2.78

I would be grateful if you could share the reported protein stability index for TGYPYRYPALREKSKKYSDVEVPA [ADD1] .
3.66

Report protein stability index for LSEALKEATKEVHTQAENAEFMRN [HMOX1] please.
5.01

Please look up its protein stability index: PKTMSQKEMEQLFSQYGRIITSRI [ELAVL3]
2.76

Using the record for NRMHESMKLFDSICNNKWFTDTSI [GNAI1] , report its protein stability index.
2.33

Can you share its protein stability index? I mean this sequence: AKVNILLVENDQQLQKILSIPQSS [ACSBG2]
2.07

Given RMRYLNGLDPEPLPLMDLCRRSVR [SPSB1] , state its recorded protein stability index.
3.36

Looking for the measured protein stability index of LHIFQLNEDGPSSENLEEETENII [TRIP13] , can you help?
4.21

What measured protein stability index goes with HTHPSACQGQRLFEKLLQLTSQNI [PLD5] ?
1.84

So what does the record say about protein stability index for DLRTVDPETQARLEALLEAAGIGK [ANKRD17] ?
3.94

So what does the record say about protein stability index for PGPQGSAGQRGEPGPKGDPGEKSH [EMID1] ?
5.49

Returns the measured protein stability index for the input sequence. Input: GVNPDQVEKIRKLPNTLLRKDKDV [ANKRD40]
4.73

Using the record for QALLRISLDKVQRSLGPRAPSLRR [SERTAD3] , report its protein stability index.
2.62

Look up protein stability index: IPAVLTVSMLGYPFILPDMVGGNA [MYORG]
2.63

# protein stability index lookup, item GFEESEPLTGFLTTVPDGPTQLRA [TNXB]
4.52

Sample KTRTVFSSTQLCVLNDRFQRQKYL [NANOGP8] — what was its protein stability index?
2.67

Can you share its protein stability index? I mean this sequence: TVAGKHQDLKYISPEIMASVLNGK [CDC25A]
3.3

Recorded protein stability index of FGEDGIFRHDRLRFRDFVDALEDS [PBXIP1] , please.
3.58

Quick one: protein stability index of GTWDDAFATFCGGLAANGALQRLD [LRRC45] ?
3.12

Record request: protein stability index value, item LAGGLCVGIYATNSAEACQYVITH [ACSBG2]
2

So what does the record say about protein stability index for PQELLQSQDFVGEKLGSGEPSHSV [ATE1] ?
5.43

Requested read-out: protein stability index. Entry: APWLSLFPPEGNMEDKEMTGPQLP [ZNF263]
4.75

// returns reported protein stability index for input TIEQSLLEVMEEEELANLRASQRE [RSPH3]
4.88

# protein stability index lookup, item MLALRGQTGGDVNVEMDAAPGVDL [KRT16]
4.78

Query: protein stability index; subject: NHEEEVNTLRSQLGDRLNVEVDTA [KRT34]
5.44

Suppose we examine the sequence RELESREAELRRRDTFYKEQLERI [CHCHD6] ; what protein stability index value has been reported?
4.87

# input sequence: AQEKAADVQARLNRSDHGIFHSRT [FCHSD1] ; wanted: its protein stability index
4.37

Which protein stability index value is on record for YDGRSRLSSVECLDYTADEDGVWY [KLHL12] ?
3.76

// query protein stability index value for entry MLWEHNSTIVVMLTKLREMGREKC [PTPRD]
2.15

Bench note: what protein stability index did LPEWISCLIQKAQWTVGKLNCPFC [RNF180] show?
2.31

Report protein stability index for GFRGSDDMELHRMSRMQSKEYPVV [TBX5] please.
3.98

// returns reported protein stability index for input AKPNMIISVNGDVITIKSESTFKN [FABP4]
3.03

Requested field: protein stability index. Item: DAQEIMQSLRDLGVKISEQQAEKI [SLC25A25]
3.79

Entry under review: YISLLLRAEPYPTSRFGSQCMQPN [NR2F2] . Reported protein stability index?
2.43

protein stability index for ETQKLLCKNGETLLGAVNFFVSSI [ARFIP2] ?
2.25

Query: protein stability index; subject: VCQEVLERSRDVVDEVSVSLRLWD [RHOBTB1]
3.36

For the sequence shown here, DVRLLPRRLPLAFRDATSAPLRKL [DYRK1B] , give the reported protein stability index.
3.02

The reported numbers originate from the supplement of paper PMC10567573.
